Test system: Mycobacterium tuberculosis
Assay: Antibacterial activity against Mycobacterium tuberculosis by AlamarBlue assay
Format: functional
MIC=<90 less than 0.04 µg/mL is Satisfied; MIC=<90 greater than or equal to 0.04 µg/mL is Not satisfied.

Consider the following illustrative entries.
O=C(NC12CC3CC(CC(C3)C1)C2)c1cc2ccc(Br)cc2[nH]1    Satisfied
C[C@@H]1[C@@H](NC(=O)c2cc3ccc(Br)cc3[nH]2)C[C@H]2C[C@@H]1C2(C)C    Satisfied
Cc1cc(C)c2cc(C(=O)NC3CCCCCCC3)oc2c1    Not satisfied

Query :: Hi there! Is MIC=<90 for CC(C)=CCC/C(C)=C/CNC(=O)c1cc2c(Cl)cc(Cl)cc2[nH]1 below 0.04 µg/mL, do you know?
Result :: Not satisfied

---

Test: Selectivity index, ratio of IC50 for African green monkey Vero cells to MIC for Mycobacterium abscessus CIP104536
Type: toxicity
Conditions: read-out: Selectivity Index
I'd be grateful if you could share measured selectivity ratio for these entries.

C[C@@H]1[C@@H](NC(=O)c2cc3c(F)cc(F)cc3[nH]2)C[C@H]2C[C@@H]1C2(C)C    ≥ 2

Quick one: give me selectivity ratio for each item below, same order please.
1. O=C(NC1CCCCCC1)c1cc2c(Cl)cc(Cl)cc2[nH]1
2. CC1(C)C2CC[C@@]1(C)C(NC(=O)c1cc3c(Cl)cc(Cl)cc3[nH]1)C2 (some centres undefined)

Result ::
1. 64 to 128
2. 0.25

---

Target: CYP1A2 (Homo sapiens, UniProt P05177)
Test: Inhibition of CYP1A2 in human liver microsomes preincubated for 5 mins followed by NADPH addition at 10 uM measured after 10 mins by LC-MS/MS analysis relative to control
Assay type: ADME
observed_property: inhibition at 10 min, 10 µM (%)
One number for each entry, in %.

Query :: Tell us which inhibition at 10 min, 10 µM value is on record for O=C(NC1CCCCCC1)c1cc2c(Cl)cc(Cl)cc2[nH]1
Result :: 19

---

Test system: Mycobacteroides abscessus
Experiment: Antibacterial activity against Mycobacterium abscessus CIP104536 after 3 to 5 days by two fold serial dilution method
Format: functional
observed_property: MIC (µg/mL)
One number for each entry, in µg/mL.

Record excerpt, results attached:
Cc1ccc2cc(C(=O)NC3CCCCCC3)[nH]c2c1    0.25
C[C@@H]1[C@@H](NC(=O)c2cc3c(F)cc(F)cc3[nH]2)C[C@H]2C[C@@H]1C2(C)C    32
O=C(NC1CCCCCC1)c1cc2ccc(Br)cc2[nH]1    0.125
Cc1cc(C)c2cc(C(=O)NC34CC5CC(CC(C5)C3)C4)oc2c1    1
C[C@@H]1[C@@H](NC(=O)c2cc3ccc(Br)cc3[nH]2)C[C@H]2C[C@@H]1C2(C)C    0.125
COc1cc(OC)c2cc(C(=O)NC3CCCCCC3)[nH]c2c1    1

Quick one: give me MIC for each item below, same order please.
1. Cc1ccc2[nH]c(C(=O)NC3CCCCCC3)cc2c1
2. Cc1cccc2cc(C(=O)NC3CCCCCC3)[nH]c12

Result ::
1: 0.25; 2: 16

---

Target: Cytochrome P450 1A2 (Homo sapiens)
Sequence (P05177 whole entry): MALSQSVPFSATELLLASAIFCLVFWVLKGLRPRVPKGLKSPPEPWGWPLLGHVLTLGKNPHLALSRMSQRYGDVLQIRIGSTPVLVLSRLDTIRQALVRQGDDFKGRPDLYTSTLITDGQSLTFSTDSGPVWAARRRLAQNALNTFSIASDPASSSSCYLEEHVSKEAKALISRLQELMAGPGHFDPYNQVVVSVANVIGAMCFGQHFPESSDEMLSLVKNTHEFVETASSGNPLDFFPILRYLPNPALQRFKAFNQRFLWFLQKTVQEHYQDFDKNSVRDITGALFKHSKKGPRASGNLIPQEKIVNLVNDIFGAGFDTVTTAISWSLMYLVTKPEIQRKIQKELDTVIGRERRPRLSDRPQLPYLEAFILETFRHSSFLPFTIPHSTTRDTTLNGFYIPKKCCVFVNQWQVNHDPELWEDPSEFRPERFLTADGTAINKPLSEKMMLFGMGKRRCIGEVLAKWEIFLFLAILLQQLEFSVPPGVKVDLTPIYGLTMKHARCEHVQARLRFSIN
observed_property: IC50

Query :: Tell us which IC50 value is on record for O=C(NC1CCCCCC1)c1cc2c(Cl)cc(Cl)cc2[nH]1
Result :: ≤ 20 µM

---

Target: Cytochrome P450 2D6 (Homo sapiens)
Sequence (P10635 whole entry): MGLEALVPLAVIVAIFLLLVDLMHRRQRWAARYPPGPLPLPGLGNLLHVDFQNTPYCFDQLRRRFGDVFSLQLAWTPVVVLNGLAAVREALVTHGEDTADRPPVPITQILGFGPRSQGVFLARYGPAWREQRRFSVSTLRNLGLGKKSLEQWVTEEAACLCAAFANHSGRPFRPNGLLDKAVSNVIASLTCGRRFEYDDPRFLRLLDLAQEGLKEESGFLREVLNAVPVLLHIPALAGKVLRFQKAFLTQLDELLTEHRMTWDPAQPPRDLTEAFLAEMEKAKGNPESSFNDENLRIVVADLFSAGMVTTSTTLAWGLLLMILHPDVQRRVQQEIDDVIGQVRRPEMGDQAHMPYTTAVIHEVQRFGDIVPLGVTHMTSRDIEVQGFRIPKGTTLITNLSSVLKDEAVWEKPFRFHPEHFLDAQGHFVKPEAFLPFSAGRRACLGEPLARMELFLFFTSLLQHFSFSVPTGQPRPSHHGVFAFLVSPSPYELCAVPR
observed_property: IC50

Query :: Tell us which IC50 value is on record for O=C(NC1CCCCCC1)c1cc2c(Cl)cc(Cl)cc2[nH]1
Result :: ≤ 20 µM

---

Biological target: Cytochrome P450 2C9 (Homo sapiens)
observed_property: IC50

Query :: Tell us which IC50 value is on record for O=C(NC1CCCCCC1)c1cc2c(Cl)cc(Cl)cc2[nH]1
Result :: ≤ 20 µM

---

Target: Cytochrome P450 3A4 (Homo sapiens, UniProt P08684)
observed_property: IC50

Query :: Tell us which IC50 value is on record for O=C(NC1CCCCCC1)c1cc2c(Cl)cc(Cl)cc2[nH]1
Result :: ≤ 20 µM

---

I'd be grateful if you could share measured selectivity ratio for these entries.
Assay: Selectivity index, ratio of IC50 for African green monkey Vero cells to MIC=<90 for Mycobacterium tuberculosis
Format: toxicity
Conditions: read-out: Selectivity Index

Record excerpt, results attached:
O=C(NC1CCC2(CCCCC2)CC1)c1cc2c(Cl)cc(Cl)cc2[nH]1    ≥ 32800
O=C(NC1CCCCCC1)c1cc2c(Cl)cc(Cl)cc2[nH]1    2050 to 4100
C[C@@H]1[C@@H](NC(=O)c2cc3c(Cl)cc(Cl)cc3[nH]2)C[C@H]2C[C@@H]1C2(C)C    2050
O=C(NC1CCCCCC1)c1cc2ccc(Br)cc2[nH]1    ≥ 2050
NNC(=O)c1ccncc1 [ISONIAZID]    > 6400
CC1(C)C2CC[C@@]1(C)C(NC(=O)c1cc3c(Cl)cc(Cl)cc3[nH]1)C2 (stereo not given in full)    513
Cc1cc(C)c2cc(C(=O)NC3CCCCCC3)[nH]c2c1    4100
O=C(NC12CC3CC(CC(C3)C1)C2)c1cc2c(Cl)cc(Cl)cc2[nH]1    ≥ 8210

Quick one: give me selectivity ratio for each item below, same order please.
1. C[C@@H]1[C@@H](NC(=O)c2cc3c(F)cc(F)cc3[nH]2)C[C@H]2C[C@@H]1C2(C)C
2. O=C(NC12CC3CC(CC(C3)C1)C2)c1cc2ccc(Br)cc2[nH]1

Result ::
["≥ 16400", "≥ 4100"]

---

Experiment: Protein binding in rat plasma at 5 uM after 10 mins by LC-MS/MS analysis
Format: ADME, cell-free
Conditions: read-out: PPB (converted)
observed_property: fraction unbound at 10 min, 5 µM
Answers are plain numbers.

Query :: Tell us which fraction unbound at 10 min, 5 µM value is on record for O=C(NC1CCCCCC1)c1cc2c(Cl)cc(Cl)cc2[nH]1
Result :: 0.008

---

I'd be grateful if you could share measured MIC for these entries.
System: Mycobacteroides abscessus
Assay: Antibacterial activity against Mycobacterium abscessus CIP104536 after 3 to 5 days by two fold serial dilution method
Format: functional
Give bare numbers, in µg/mL.

Record excerpt, results attached:
Cc1cc(C)c2[nH]c(C(=O)NC3CCCCCC3)cc2c1    0.25
Cc1cccc2[nH]c(C(=O)NC3CCCCCC3)cc12    0.25

Query :: Tell us which MIC value is on record for O=C(NC1CCCCCCC1)c1cc2c(C(F)(F)F)cc(C(F)(F)F)cc2[nH]1
Result :: 0.5

---

Assay: Permeability of the compound at 25 uM at pH 7.4 after 4 hrs by LC-MS based PAMPA
Format: physicochemical
Conditions: read-out: permeability
observed_property: Papp at 4 h, 25 µM (×10⁻⁶ cm/s)
Answers are plain numbers, in ×10⁻⁶ cm/s.

Query :: Tell us which Papp at 4 h, 25 µM value is on record for O=C(NC1CCCCCC1)c1cc2c(Cl)cc(Cl)cc2[nH]1
Result :: 0.2

---

Biological target: CYP2D6 (Homo sapiens)
Sequence (P10635 whole entry): as above
Assay: Inhibition of CYP2D6 in human liver microsomes preincubated for 5 mins followed by NADPH addition at 10 uM measured after 10 mins by LC-MS/MS analysis relative to control
Format: ADME
observed_property: inhibition at 10 min, 10 µM (%)
Give bare numbers, in %.

Query :: Tell us which inhibition at 10 min, 10 µM value is on record for O=C(NC1CCCCCC1)c1cc2c(Cl)cc(Cl)cc2[nH]1
Result :: 10

---

Target: CYP2C8 (Homo sapiens, UniProt P10632)
Sequence (P10632 whole entry): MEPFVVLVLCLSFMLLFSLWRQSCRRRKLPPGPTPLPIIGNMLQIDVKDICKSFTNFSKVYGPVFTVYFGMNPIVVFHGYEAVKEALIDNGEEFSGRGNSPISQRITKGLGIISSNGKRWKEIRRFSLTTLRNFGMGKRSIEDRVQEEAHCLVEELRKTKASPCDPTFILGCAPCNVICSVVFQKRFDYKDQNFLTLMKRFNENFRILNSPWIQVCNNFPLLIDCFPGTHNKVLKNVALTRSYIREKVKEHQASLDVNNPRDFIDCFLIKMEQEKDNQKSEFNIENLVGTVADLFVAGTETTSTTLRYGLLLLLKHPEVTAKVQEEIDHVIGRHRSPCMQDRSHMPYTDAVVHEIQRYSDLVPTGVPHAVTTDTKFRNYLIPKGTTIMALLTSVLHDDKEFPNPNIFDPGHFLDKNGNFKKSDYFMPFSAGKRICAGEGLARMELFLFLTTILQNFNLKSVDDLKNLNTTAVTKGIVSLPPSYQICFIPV
Assay: Inhibition of CYP2C8 in human liver microsomes preincubated for 5 mins followed by NADPH addition at 10 uM measured after 10 mins by LC-MS/MS analysis relative to control
Assay type: ADME
observed_property: inhibition at 10 min, 10 µM (%)
Answers are plain numbers, in %.

Query :: Tell us which inhibition at 10 min, 10 µM value is on record for O=C(NC1CCCCCC1)c1cc2c(Cl)cc(Cl)cc2[nH]1
Result :: 20
